System: velvetleaf
Experiment: Foliage treatment test for upland field (Test Example 3): velvetleaf
Assay type: in vivo
Conditions: dose 2.5 g ai/a; foliage treatment at 1.0-2.0 leaf stage of southern crabgrass; examined after 3 weeks
Value Type: Herbicidal Effect velvetleaf

Solved cases (10 shown):
[
  {
    "Compound": "COCC(=Cc1cccc(C(F)(F)F)c1)c1nc2cc(OC(F)(F)F)ccc2o1",
    "Experimental Target": "velvetleaf",
    "Value Reported": "4 (80%-less than 100%)"
  },
  {
    "Compound": "COCC(=Cc1cccc(C(F)(F)F)c1)c1nc2cc(C(C)(C)C)ccc2o1",
    "Experimental Target": "velvetleaf",
    "Value Reported": "3 (60%-less than 80%)"
  },
  {
    "Compound": "COCC(=Cc1cccc(C(F)(F)F)c1)c1nc2cc(Br)ccc2o1",
    "Experimental Target": "velvetleaf",
    "Value Reported": "4 (80%-less than 100%)"
  },
  {
    "Compound": "COCC(=Cc1ccc(F)c(C(F)(F)F)c1)c1nc2cc(F)c(F)cc2o1",
    "Experimental Target": "velvetleaf",
    "Value Reported": "3 (60%-less than 80%)"
  },
  {
    "Compound": "CSCC(=Cc1cccc(C(F)(F)F)c1)c1nc2cc(C(F)(F)F)ccc2o1",
    "Experimental Target": "velvetleaf",
    "Value Reported": "2 (40%-less than 60%)"
  },
  {
    "Compound": "COCC(=Cc1cccc(C(F)(F)F)c1)c1nc2cc(C(F)(F)F)ccc2o1",
    "Experimental Target": "velvetleaf",
    "Value Reported": "5 (100%)"
  },
  {
    "Compound": "CCOC/C(=C\\c1cccc(C(F)(F)F)c1)c1nc2cc(Cl)ccc2o1",
    "Experimental Target": "velvetleaf",
    "Value Reported": "5 (100%)"
  },
  {
    "Compound": "FC(F)C(F)(F)COCC(=Cc1cccc(C(F)(F)F)c1)c1nc2cc(C(F)(F)F)ccc2o1",
    "Experimental Target": "velvetleaf",
    "Value Reported": "4 (80%-less than 100%)"
  },
  {
    "Compound": "CCSCC(=Cc1cccc(C(F)(F)F)c1)c1nc2cc(C(F)(F)F)ccc2o1",
    "Experimental Target": "velvetleaf",
    "Value Reported": "2 (40%-less than 60%)"
  },
  {
    "Compound": "COCC(=Cc1ccc(Cl)c(C(F)(F)F)c1)c1nc2cc(Cl)ccc2o1",
    "Experimental Target": "velvetleaf",
    "Value Reported": "4 (80%-less than 100%)"
  }
]

Hi! Can you tell me Herbicidal Effect velvetleaf for each of these molecules?
1. COCC(=Cc1cccc(C(F)(F)F)c1)c1nc2cc(C#N)c(F)cc2o1
2. CCOCC(=Cc1cccc(C(F)(F)F)c1)c1nc2cc(C(F)(F)F)ccc2o1
3. COC/C(=C\c1cccc(C(F)(F)F)c1)c1nc2cc(Cl)ccc2o1
4. FC(F)(F)COC/C(=C\c1cccc(C(F)(F)F)c1)c1nc2cc(C(F)(F)F)ccc2o1

A.
4 (80%-less than 100%)
5 (100%)
5 (100%)
5 (100%)
